I'd be grateful if you could share measured protein stability index for these entries.
Assay remarks: protein stability index of a GFP-peptide fusion (yeast GPS) (PSI 1-4); higher = more stable; sorted into four equal gates, so the index is relative within each strain
Condition summary: san1∆
Answers are plain numbers.

Respectfully, I request protein stability index for each entry included below.
1. YEAYPNTSLPPSILEDS [FAS1]
2. NHVKQFYERLDKSTTQL [MED11]
3. QLTPQQQQLVNQMKVAP [GAL11]
4. ILGIHTSKMNLSEDVNL [RPT2]
5. GAAPYAAKLKQTENDLK [RPT1]
6. PSLKAHFTEIKLNKVDK [SIR3]
7. WELYTDFNEIVQYLSGA [POP3]
8. YNLRSLNLINAKLWFYI [RPN3]

// result
2.25
2.5
3.01
3
2.31
2.35
2.4
1.38

FYI, the data here is from the supplement of paper PMC9732359.
